Reference source: ChEMBL document CHEMBL3779882

# experimentSummary: Chemical stability in 5% aqueous DMSO assessed as compound remaining at 20 uM measured immediately post treatment by HPLC analysis
# Assay type: physicochemical
# conditionSet: read-out: Stability
propertyMeasured: remaining at 0 min, 20 µM (%)

In the examples that follow, each entry is paired with its recorded remaining at 0 min, 20 µM.
[[record]]
compound = "Cc1ccccc1C1N[C@H](C(=O)O)CS1 (mixture of isomers)"
resultnumber = 6.8

[[record]]
compound = "O=C(O)[C@@H]1CSC(c2c(F)cccc2F)N1 (mixture of isomers)"
resultnumber = 53.8

[[record]]
compound = "O=C(O)[C@@H]1CSC(c2ccccc2Br)N1 (mixture of isomers)"
resultnumber = 19


[A] O=C(O)[C@@H]1CSC(c2ccccc2)N1 (mixture of isomers)
[B] O=C(O)[C@@H]1CSC(c2cccc(Cl)c2Cl)N1 (mixture of isomers)
Lookup: Select the item with the higher value of remaining at 0 min, 20 µM from the options A and B listed. Your answer should be the label attached to the chosen record.
Found: A

====

# experimentSummary: Chemical stability in 0.1 M phosphoric acid at pH 2 assessed as compound remaining at 20 uM after 50 mins by HPLC analysis
# Format: physicochemical
# conditionSet: read-out: Stability
propertyMeasured: remaining at 50 min, 20 µM (%)

[[record]]
compound = "O=C(O)[C@@H]1CSC(c2ccccc2)N1 (mixture of isomers)"
resultnumber = 49.9

[[record]]
compound = "O=C(O)[C@@H]1CSC(c2cccc(F)c2F)N1 (mixture of isomers)"
resultnumber = 43.5

[[record]]
compound = "O=C(O)[C@@H]1CSC(c2ccccc2Br)N1 (mixture of isomers)"
resultnumber = 9.5

[[record]]
compound = "O=C(O)[C@@H]1CSC(c2cccc(Cl)c2Cl)N1 (mixture of isomers)"
resultnumber = 14.2

[[record]]
compound = "COc1ccccc1C1N[C@H](C(=O)O)CS1 (mixture of isomers)"
resultnumber = 67.6


[P] Cc1ccccc1C1N[C@H](C(=O)O)CS1 (mixture of isomers)
[Q] O=C(O)[C@@H]1CSC(c2c(F)cccc2F)N1 (mixture of isomers)
Lookup: Please indicate which has the smaller reported remaining at 50 min, 20 µM: P , or Q . Your answer should be the label attached to the chosen record.
Found: P
(P: 10.1%, Q: 54.8%)

====

# experimentSummary: Chemical stability in PBS buffer assessed as compound remaining at 20 uM after 20 mins by HPLC analysis
# Format: physicochemical
# conditionSet: read-out: Stability
propertyMeasured: remaining at 20 min, 20 µM (%)

In the examples that follow, each entry is paired with its recorded remaining at 20 min, 20 µM.
[[record]]
compound = "O=C(O)[C@@H]1CSC(c2cccc(F)c2F)N1 (mixture of isomers)"
propertymeasured = "remaining at 20 min, 20 µM"
resultnumber = 69.3

[[record]]
compound = "O=C(O)[C@@H]1CSC(c2ccccc2)N1 (mixture of isomers)"
propertymeasured = "remaining at 20 min, 20 µM"
resultnumber = 27.8

[[record]]
compound = "O=C(O)[C@@H]1CSC(c2c(F)cccc2F)N1 (mixture of isomers)"
propertymeasured = "remaining at 20 min, 20 µM"
resultnumber = 61.1

[[record]]
compound = "O=C(O)[C@@H]1CSC(c2cccc(Cl)c2Cl)N1 (mixture of isomers)"
propertymeasured = "remaining at 20 min, 20 µM"
resultnumber = 17.4


[A] O=C(O)[C@@H]1CSC(c2ccccc2Br)N1 (mixture of isomers)
[B] COc1ccccc1C1N[C@H](C(=O)O)CS1 (mixture of isomers)
[C] Cc1ccccc1C1N[C@H](C(=O)O)CS1 (mixture of isomers)
Lookup: Reorder the items by remaining at 20 min, 20 µM, least to greatest. Present the labels in the sequence the task asks for.
Found: C, A, B

====

# experimentSummary: Chemical stability in MeOH solution assessed as compound remaining at 20 uM measured immediately post treatment by HPLC analysis
# Type: physicochemical
# conditionSet: read-out: Stability
propertyMeasured: remaining at 0 min, 20 µM (%)

In the examples that follow, each entry is paired with its recorded remaining at 0 min, 20 µM.
[[record]]
compound = "O=C(O)[C@@H]1CSC(c2c(F)cccc2F)N1 (mixture of isomers)"
resultnumber = 100

[[record]]
compound = "O=C(O)[C@@H]1CSC(c2ccccc2Br)N1 (mixture of isomers)"
resultnumber = 70.5

[[record]]
compound = "O=C(O)[C@@H]1CSC(c2cccc(F)c2F)N1 (mixture of isomers)"
resultnumber = 100

[[record]]
compound = "O=C(O)[C@@H]1CSC(c2ccccc2)N1 (mixture of isomers)"
resultnumber = 96.1


[I] COc1ccccc1C1N[C@H](C(=O)O)CS1 (mixture of isomers)
[II] O=C(O)[C@@H]1CSC(c2cccc(Cl)c2Cl)N1 (mixture of isomers)
[III] Cc1ccccc1C1N[C@H](C(=O)O)CS1 (mixture of isomers)
Lookup: Sort these compounds on remaining at 0 min, 20 µM so the largest reading comes first. Present the labels in the sequence the task asks for.
Found: I, II, III
(I: 100%, II: 15.5%, III: 4%)

====

# experimentSummary: Antioxidant activity assessed as cupric ion reducing activity treated with MeOH solution measured as ratio of sample to trolox molar extinction coefficient after 20 mins by CUPRAC assay
# Format: physicochemical
propertyMeasured: Ratio

In the examples that follow, each entry is paired with its recorded Ratio.
[[record]]
molecule = "O=C(O)[C@@H]1CSC(c2ccccc2)N1 (mixture of isomers)"
resultnumber = 1.54

[[record]]
molecule = "N[C@@H](CS)C(=O)O"
resultnumber = 0.63

[[record]]
molecule = "O=C(O)[C@@H]1CSC(c2ccccc2Br)N1 (mixture of isomers)"
resultnumber = 0.8


[a] O=C(O)[C@@H]1CSC(c2cccc(F)c2F)N1 (mixture of isomers)
[b] Cc1ccccc1C1N[C@H](C(=O)O)CS1 (mixture of isomers)
Lookup: Select the item with the higher value of Ratio from the options a and b listed. Your answer should be the label attached to the chosen record.
Found: a

====

# experimentSummary: Antioxidant activity assessed as cupric ion reducing activity treated with 5% DMSO measured as ratio of sample to trolox molar extinction coefficient after 20 mins by CUPRAC assay
# Assay type: physicochemical
propertyMeasured: Ratio

[[record]]
compound = "COc1ccccc1C1N[C@H](C(=O)O)CS1 (mixture of isomers)"
resultnumber = 0.79

[[record]]
compound = "O=C(O)[C@@H]1CSC(c2ccccc2Br)N1 (mixture of isomers)"
resultnumber = 1


====

# experimentSummary: Chemical stability in 5% aqueous DMSO assessed as compound remaining at 20 uM after 50 mins by HPLC analysis
# Format: physicochemical
# conditionSet: read-out: Stability
propertyMeasured: remaining at 50 min, 20 µM (%)

In the examples that follow, each entry is paired with its recorded remaining at 50 min, 20 µM.
[[record]]
compound = "COc1ccccc1C1N[C@H](C(=O)O)CS1 (mixture of isomers)"
propertymeasured = "remaining at 50 min, 20 µM"
resultnumber = 26.8

[[record]]
compound = "O=C(O)[C@@H]1CSC(c2ccccc2Br)N1 (mixture of isomers)"
propertymeasured = "remaining at 50 min, 20 µM"
resultnumber = 14.3

[[record]]
compound = "O=C(O)[C@@H]1CSC(c2c(F)cccc2F)N1 (mixture of isomers)"
propertymeasured = "remaining at 50 min, 20 µM"
resultnumber = 38.2

[[record]]
compound = "O=C(O)[C@@H]1CSC(c2cccc(F)c2F)N1 (mixture of isomers)"
propertymeasured = "remaining at 50 min, 20 µM"
resultnumber = 28.7

[[record]]
compound = "O=C(O)[C@@H]1CSC(c2cccc(Cl)c2Cl)N1 (mixture of isomers)"
propertymeasured = "remaining at 50 min, 20 µM"
resultnumber = 15.7


[a] O=C(O)[C@@H]1CSC(c2ccccc2)N1 (mixture of isomers)
[b] Cc1ccccc1C1N[C@H](C(=O)O)CS1 (mixture of isomers)
Lookup: Please indicate which has the smaller reported remaining at 50 min, 20 µM: a , or b . Your answer should be the label attached to the chosen record.
Found: b

====

# experimentSummary: Antioxidant activity assessed as DPPH free radical scavenging activity treated with 5% DMSO after 50 mins
# Assay type: physicochemical
# conditionSet: read-out: IC50
pIC50: −log10 of the molar value.
propertyMeasured: pIC50

In the examples that follow, each entry is paired with its recorded pIC50.
[[record]]
compound = "Cc1ccccc1C1N[C@H](C(=O)O)CS1 (mixture of isomers)"
propertymeasured = "pIC50"
resultnumber = 4.41

[[record]]
compound = "O=C(O)[C@@H]1CSC(c2cccc(F)c2F)N1 (mixture of isomers)"
propertymeasured = "pIC50"
resultnumber = 4.33


[a] COc1ccccc1C1N[C@H](C(=O)O)CS1 (mixture of isomers)
[b] N[C@@H](CS)C(=O)O
Lookup: Select the item with the higher value of pIC50 from the options a and b listed. Your answer should be the label attached to the chosen record.
Found: b
(b: 4.74, a: 4.53)

====

# experimentSummary: Chemical stability in PBS buffer assessed as compound remaining at 20 uM measured immediately post treatment by HPLC analysis
# Assay type: physicochemical
# conditionSet: read-out: Stability
propertyMeasured: remaining at 0 min, 20 µM (%)

[[record]]
molecule = "Cc1ccccc1C1N[C@H](C(=O)O)CS1 (mixture of isomers)"
unitinfo = "%"
resultnumber = 15.2

[[record]]
molecule = "COc1ccccc1C1N[C@H](C(=O)O)CS1 (mixture of isomers)"
unitinfo = "%"
resultnumber = 82.5

[[record]]
molecule = "O=C(O)[C@@H]1CSC(c2c(F)cccc2F)N1 (mixture of isomers)"
unitinfo = "%"
resultnumber = 79.4


[A] O=C(O)[C@@H]1CSC(c2ccccc2)N1 (mixture of isomers)
[B] O=C(O)[C@@H]1CSC(c2cccc(Cl)c2Cl)N1 (mixture of isomers)
Lookup: Please indicate which has the smaller reported remaining at 0 min, 20 µM: A , or B . Your answer should be the label attached to the chosen record.
Found: B
(B: 15.3%, A: 78.4%)
